Below, each entry is listed alongside its reported pIC50.
Target: CYP1A2 (Homo sapiens)
Sequence (P05177 whole entry): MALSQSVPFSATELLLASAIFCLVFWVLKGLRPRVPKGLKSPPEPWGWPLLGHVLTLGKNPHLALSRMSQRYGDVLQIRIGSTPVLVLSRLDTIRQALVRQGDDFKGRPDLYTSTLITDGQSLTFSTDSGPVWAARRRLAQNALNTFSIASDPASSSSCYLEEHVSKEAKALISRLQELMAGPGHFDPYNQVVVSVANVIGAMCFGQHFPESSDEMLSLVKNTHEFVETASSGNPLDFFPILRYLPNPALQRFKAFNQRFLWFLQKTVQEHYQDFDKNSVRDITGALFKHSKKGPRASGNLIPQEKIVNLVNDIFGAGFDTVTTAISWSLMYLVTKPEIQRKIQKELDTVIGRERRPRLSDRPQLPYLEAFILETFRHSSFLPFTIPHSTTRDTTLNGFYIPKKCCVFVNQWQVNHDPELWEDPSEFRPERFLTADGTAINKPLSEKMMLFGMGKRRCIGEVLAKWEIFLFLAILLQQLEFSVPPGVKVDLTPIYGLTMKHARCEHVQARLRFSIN
pIC50: −log10 of the molar value.

Compound	pIC50
CC(C)(C)OC(=O)/N=C(\NC(=O)OC(C)(C)C)Nc1cc(C#N)ccn1 [SB023]	< 4.00
Nc1cc(Cl)ccn1 [Compound 2-AP, 2-amino-4-chloropyridine, reference compound]	< 4.00
CC(C)(C)OC(=O)/N=C(\NC(=O)OC(C)(C)C)Nc1cc(Cl)ccn1 [SB002]	< 4.00

====

Molecular target: MSPa (Pseudomonas aeruginosa, UniProt Q9I636)
Sequence (Q9I636 whole entry): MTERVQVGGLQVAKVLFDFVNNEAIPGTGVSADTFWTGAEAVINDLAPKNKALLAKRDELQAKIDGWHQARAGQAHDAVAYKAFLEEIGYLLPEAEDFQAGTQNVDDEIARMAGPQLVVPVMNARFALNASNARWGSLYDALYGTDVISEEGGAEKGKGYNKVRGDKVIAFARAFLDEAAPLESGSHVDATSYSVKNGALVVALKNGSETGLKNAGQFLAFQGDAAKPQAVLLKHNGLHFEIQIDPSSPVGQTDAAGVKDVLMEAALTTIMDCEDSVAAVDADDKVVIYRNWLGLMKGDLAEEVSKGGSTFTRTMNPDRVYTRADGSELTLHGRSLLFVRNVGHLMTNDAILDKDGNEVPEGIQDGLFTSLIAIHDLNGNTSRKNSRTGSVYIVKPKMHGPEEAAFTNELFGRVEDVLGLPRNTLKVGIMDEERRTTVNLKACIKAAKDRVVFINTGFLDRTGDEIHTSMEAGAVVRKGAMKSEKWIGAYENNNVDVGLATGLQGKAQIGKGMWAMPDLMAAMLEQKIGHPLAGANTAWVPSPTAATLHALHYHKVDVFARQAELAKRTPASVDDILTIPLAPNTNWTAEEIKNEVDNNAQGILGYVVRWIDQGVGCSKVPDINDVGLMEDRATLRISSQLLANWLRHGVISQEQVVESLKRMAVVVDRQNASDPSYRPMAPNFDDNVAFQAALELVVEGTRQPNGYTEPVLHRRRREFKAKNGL
Assay: Isothermal titration calorimetry, MSPa
Measure Name: Kd (nM)

Smiles Record	Study System	Value Observed
CC(C)(C)OC(=O)/N=C(\NC(=O)OC(C)(C)C)Nc1cc(Cl)ccn1	MSPa (Pseudomonas aeruginosa, UniProt Q9I636)	28.6
